# study_system: Bovine cardiac myosin (Bos taurus (Bovine), UniProt Q9BE39)
# Sequence (Q9BE39 whole entry): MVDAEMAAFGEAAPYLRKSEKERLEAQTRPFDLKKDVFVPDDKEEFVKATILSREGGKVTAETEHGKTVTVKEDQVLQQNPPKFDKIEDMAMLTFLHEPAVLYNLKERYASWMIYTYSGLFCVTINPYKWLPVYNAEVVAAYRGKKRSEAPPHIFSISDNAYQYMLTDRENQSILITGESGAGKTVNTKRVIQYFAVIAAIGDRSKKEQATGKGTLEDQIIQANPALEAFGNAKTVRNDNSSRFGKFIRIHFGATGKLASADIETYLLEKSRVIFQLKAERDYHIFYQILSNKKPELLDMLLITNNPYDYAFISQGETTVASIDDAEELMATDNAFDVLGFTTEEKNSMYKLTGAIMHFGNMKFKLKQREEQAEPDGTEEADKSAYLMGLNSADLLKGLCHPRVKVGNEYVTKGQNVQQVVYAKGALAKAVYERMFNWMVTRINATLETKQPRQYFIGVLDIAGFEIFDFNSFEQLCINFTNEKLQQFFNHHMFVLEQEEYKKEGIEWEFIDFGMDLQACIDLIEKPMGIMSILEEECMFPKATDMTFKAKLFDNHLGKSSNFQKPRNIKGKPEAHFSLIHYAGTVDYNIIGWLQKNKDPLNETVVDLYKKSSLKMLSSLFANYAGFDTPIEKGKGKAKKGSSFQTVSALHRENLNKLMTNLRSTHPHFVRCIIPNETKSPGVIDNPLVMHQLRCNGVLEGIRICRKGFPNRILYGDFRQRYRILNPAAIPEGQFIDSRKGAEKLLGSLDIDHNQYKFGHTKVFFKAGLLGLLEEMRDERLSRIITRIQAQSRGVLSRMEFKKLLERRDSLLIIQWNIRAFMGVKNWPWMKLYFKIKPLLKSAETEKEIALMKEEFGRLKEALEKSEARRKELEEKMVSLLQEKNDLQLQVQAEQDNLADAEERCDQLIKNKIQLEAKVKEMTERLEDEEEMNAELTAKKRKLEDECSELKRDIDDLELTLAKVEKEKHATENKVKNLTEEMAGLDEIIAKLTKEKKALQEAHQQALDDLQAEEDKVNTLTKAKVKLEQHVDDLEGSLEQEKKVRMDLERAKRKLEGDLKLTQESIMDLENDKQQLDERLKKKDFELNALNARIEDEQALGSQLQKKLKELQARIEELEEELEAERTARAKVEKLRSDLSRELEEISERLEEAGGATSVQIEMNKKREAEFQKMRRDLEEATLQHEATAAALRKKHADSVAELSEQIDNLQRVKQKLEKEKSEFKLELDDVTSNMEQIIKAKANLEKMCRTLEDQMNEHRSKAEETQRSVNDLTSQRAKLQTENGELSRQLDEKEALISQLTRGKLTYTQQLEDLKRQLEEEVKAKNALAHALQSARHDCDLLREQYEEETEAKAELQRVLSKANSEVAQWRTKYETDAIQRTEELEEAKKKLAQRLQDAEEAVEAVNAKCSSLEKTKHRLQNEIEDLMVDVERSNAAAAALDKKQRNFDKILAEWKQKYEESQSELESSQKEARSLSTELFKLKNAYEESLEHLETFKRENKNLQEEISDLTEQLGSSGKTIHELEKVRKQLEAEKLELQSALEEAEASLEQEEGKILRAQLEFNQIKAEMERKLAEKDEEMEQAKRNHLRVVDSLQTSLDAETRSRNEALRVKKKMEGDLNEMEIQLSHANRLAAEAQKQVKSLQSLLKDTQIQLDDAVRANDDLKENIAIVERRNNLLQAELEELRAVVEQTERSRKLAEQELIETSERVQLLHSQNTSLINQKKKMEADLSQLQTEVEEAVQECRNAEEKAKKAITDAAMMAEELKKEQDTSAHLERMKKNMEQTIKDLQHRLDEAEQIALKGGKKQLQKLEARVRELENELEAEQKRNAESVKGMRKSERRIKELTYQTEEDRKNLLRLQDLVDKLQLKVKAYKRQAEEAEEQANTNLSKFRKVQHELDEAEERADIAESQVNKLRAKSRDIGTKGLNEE
# Sequence (P85100 whole entry partner): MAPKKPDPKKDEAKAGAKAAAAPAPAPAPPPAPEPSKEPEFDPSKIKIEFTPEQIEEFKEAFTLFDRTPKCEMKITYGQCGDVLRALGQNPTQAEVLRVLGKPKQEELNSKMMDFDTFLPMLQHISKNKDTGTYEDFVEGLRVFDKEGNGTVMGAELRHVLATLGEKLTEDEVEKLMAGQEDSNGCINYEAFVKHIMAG
# Sequence (Q3SZE5 whole entry partner): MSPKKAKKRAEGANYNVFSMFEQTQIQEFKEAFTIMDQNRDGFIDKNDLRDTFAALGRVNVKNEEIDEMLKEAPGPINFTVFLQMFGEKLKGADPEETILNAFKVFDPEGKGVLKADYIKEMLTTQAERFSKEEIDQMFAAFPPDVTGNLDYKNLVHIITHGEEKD
# method_notes: Cardiac muscle myosin II actin-activated ATPase assay (NADH-coupled)
# Assay type: biochemical
# Design: key: NMII-sel: no Ki value for cardiac myosin II could be determined; the compounds had no detectable inhibitory properties versus the cardiac myosin II
# assay_context: cardiac myosin II Ki over nonmuscle myosin II EC50
measurement_kind: Ratio CMMII:NMII Ki/EC50

[[record]]
entry_smiles = "COc1cc(N2CC[C@@]3(O)C(=O)c4cc(C)c(C(F)(F)F)cc4N=C23)ccn1"
measurement_kind = "Ratio CMMII:NMII Ki/EC50"
result = "NMII-sel"

[[record]]
entry_smiles = "Cc1ccc2cc(N3CC[C@@]4(O)C(=O)c5sc(C)cc5N=C34)ccc2n1"
measurement_kind = "Ratio CMMII:NMII Ki/EC50"
result = "NMII-sel"

[[record]]
entry_smiles = "Cc1cc2c(cc1C)C(=O)[C@]1(O)CCN(c3ccc4ncccc4c3)C1=N2"
measurement_kind = "Ratio CMMII:NMII Ki/EC50"
result = "NMII-sel"

